Source of measurements: PubChem BioAssay (EPA / NIEHS)

read-out: Intercellular Adhesion Molecule 1 (ICAM1), ICAM1 (gene 3383); test: BSK_KF3CT_ICAM1: BioMAP Diversity Plus: KF3CT Assay for Intercellular Adhesion Molecule 1 (ICAM1) Biomarker Activity (AID 2283067); settings: primary human keratinocytes with fibroblasts; actives raise or lower the signal
Calls of active or inactive are those of the source. Rule for the calls: active = hit-call score of the fitted dose curve at least 0.9, where 1 is the maximum; inactive = score below 0.9.
Reply using exactly one outcome from YES = active, NO = inactive

Some solved cases for reference:
> print(dat)
                                   molecule  label.class
1  COC1=CC(=O)C[C@@H](C)[C@]12Oc1c(Cl)c(OC)cc(OC)c1C2=O           NO
2    O=C1c2ccc(O)c(O)c2C(=O)c2c(O)ccc(O)c21           NO
3                     OCCN1CN(CCO)CN(CCO)C1          YES

Returns: the outcome recorded for CCC(C)c1ccccc1O (stereo unspecified) in this assay.
NO

Returns: the outcome recorded for `COc1cc(OC)nc(NC(=O)NS(=O)(=O)Nc2ccccc2C(=O)N(C)C)n1` in this assay.
NO

Returns: the outcome recorded for `OCC(F)(F)C(F)(F)C(F)(F)C(F)(F)C(F)(F)C(F)(F)C(F)(F)C(F)(F)C(F)(F)C(F)(F)C(F)(F)F` in this assay.
NO

Returns: the outcome recorded for `CS(=O)(=O)c1ccc([C@@H](CC2CCCC2)C(=O)Nc2cnccn2)cc1Cl` in this assay.
NO

Returns: the outcome recorded for C=CC(C)(CCC=C(C)C)OC(C)=O (stereo unspecified) in this assay.
NO

Returns: the outcome recorded for `CC[N+](CC)(CC)Cc1ccccc1` in this assay.
NO

Returns: the outcome recorded for `O=C(NO)c1ccccc1` in this assay.
NO

Returns: the outcome recorded for `O=C(O)CCC(F)(F)C(F)(F)C(F)(F)C(F)(F)C(F)(F)F` in this assay.
NO
